# Experiment: chemical genetic growth profiling, strain panel (AID 1159580);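 further: tested at 20 µM; growth read once vehicle control cultures reached saturation at 30 °C; 1 = growth at the plate median or of vehicle wells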
# Measurement context: S. cerevisiae deletion strains, growth OD, locus YLR418C, strain cdc73
In all, about 5,500 compounds went through this assay and about 2,000 (36%) were called active. About 18% were inconclusive and are not listed. No stated cut-off is given here; in the data, active means normalized growth mostly below about 0.91 (no sharp cut-off); inconclusive means no clear call, values can overlap the other calls; inactive means mostly above about 0.92. Some of the results follow.
Answer with one of the outcomes given here: active, inactive

Cc1ccc(O)c(C(CCN(C(C)C)C(C)C)c2ccccc2)c1 (stereo unspecified) :: inactive

Record lookup: outcome of this test for CC(=O)OC[C@@]1(O)C[C@@]23CCC4c5ccoc5CC[C@]4(C)C2CC[C@@H]1C3 (stereo partly specified) ?
inactive

Given CN1C(=O)CC[C@H]1c1cccnc1 , state the outcome it received in this test.
inactive

Look up the recorded call for Oc1cccc2cccnc12 in this test.
active

I'd appreciate the recorded outcome for COc1cc([C@@H]2c3cc4c(cc3[C@H](O)[C@H]3COC(=O)[C@H]23)OCO4)cc(OC)c1OC from this test.
inactive

Could you check what this test reported for O=C1c2cccc(O)c2C(=O)c2c(O)cccc21 ?
active

Please share the test call associated with C[N+]1(C)CCCC(OC(=O)C(O)(c2ccccc2)c2ccccc2)C1 (stereo unspecified) .
inactive

Hi, sorry to bother you, what did the test record for O=C(O)c1cccnc1C(=O)O ?
inactive

Lab log entry: C[C@H]1C(=O)CCC2[C@]3(C)CC[C@@]4(C)C5CC(C)(C)CC[C@]5(C)CC[C@]4(C)C3CC[C@@]21C (stereo partly specified) — outcome as called in the assay?
inactive

Field: outcome | Entry: O=C1C=CC(=O)c2c(O)cccc21
inactive

Hi, do you know how COC(=O)CC1C(C)(C)C(=O)C2CC3(O)C4=CC(=O)OC(c5ccoc5)C4(C)CCC3C1(C)C2=O (stereo unspecified) came out in this test?
inactive

----------
# Experiment: chemical genetic growth profiling, strain panel (AID 1159580)
# Measurement context: S. cerevisiae deletion strains, growth OD, locus YEL061C, strain CIN8 (second series), stronger effect = lower value
The campaign covered roughly 5,500 compounds. About 2,000 (36%) were called active. Roughly 18% stayed inconclusive and do not appear here. This is one part of the list.
// reported normalized growth for each item listed
Reply briefly: the number, and no unit.

Recorded normalized growth, per entry:
COc1ccc(CC(=O)c2ccc(O)cc2O)cc1 :: 0.994
CCCCN(CC)c1c([N+](=O)[O-])cc(C(F)(F)F)cc1[N+](=O)[O-] :: 1.03
COc1cc(O)ccc1C(C)=O :: 1.02
CC(=O)OCC1=C(C(=O)O)N2C(=O)[C@@H](NC(=O)CSc3ccncc3)[C@H]2SC1 :: 1.05
CC(=O)Oc1c(C)c(C)c2c(c1C)CCC(C)(CCCC(C)CCCC(C)CCCC(C)C)O2 (stereo unspecified) :: 0.975

Give reported normalized growth value for O=C(CCc1ccc(O)cc1)c1c(O)cc(O)cc1O
1.02

----------
Reported normalized growth is given for each of the following molecules.
# Experiment: chemical genetic growth profiling, strain panel (AID 1159580)
# Measurement context: S. cerevisiae deletion strains, growth OD, locus YNL071W, strain lat1, stronger effect = lower value
Hit rate of the full screen: of about 5,500 compounds, about 2,000 (36%) were called active. Roughly 18% stayed inconclusive and do not appear here. Some of the results follow.
Reply with the value as a number alone.

Reference set (3 entries):
Cc1cc2nc3c(=O)[nH]c(=O)nc-3n(CC(O)C(O)C(O)CO)c2cc1C (stereo unspecified) :: 0.972
O=C1C=CC(=O)c2c(O)c(Cl)c(Cl)c(O)c21 :: 0.0684
NC(Cc1ccc(Cl)cc1)C(=O)O (stereo unspecified) :: 1

Return normalized growth for the following molecule: CN1CCN(C2=Nc3cc(Cl)ccc3Nc3ccccc32)CC1
0.937

Give the value of normalized growth reported for the following: CCCc1ncc(C[n+]2ccccc2C)c(N)n1
0.995

State its normalized growth for this molecule: CN1CCCCC1c1ccc(-c2cccnc2)nc1 (stereo unspecified)
0.993

----------
# Experiment: chemical genetic growth profiling, strain panel (AID 1159580)
# Measurement context: S. cerevisiae deletion strains, growth OD, locus YHR129C, strain ARP1, stronger effect = lower value
In all, about 5,500 compounds went through this assay and about 2,000 (36%) were called active. About 18% were inconclusive and are not listed. The list shows a part of the results.
Measured normalized growth by item
Form rule: numeric answer, no unit written next to it.

COP(=O)(NC(C)=O)SC (stereo unspecified) :: 1.01

Determine its reported normalized growth: Cn1c(=O)c2c(ncn2C)n(C)c1=O
0.996

For the molecule Cn1c(=O)[nH]c2ncn(C)c2c1=O , report normalized growth.
1.02

Given the molecule Cn1cnc2c1c(=O)[nH]c(=O)n2C , write its reported normalized growth.
1.01

For the molecule CC1(C)CC23C(=O)CCC(O)C2(C)CCC13 (stereo unspecified) , give its reported normalized growth.
1.01

Respond only with normalized growth recorded for CNC(=O)Oc1ccccc1OC(C)C
1.03

Supply measured normalized growth of Cn1c(=O)c2c(ncn2CCCl)n(C)c1=O in your reply.
1

----------
# Experiment: chemical genetic growth profiling, strain panel (AID 1159580);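 further: tested at 20 µM; growth read once vehicle control cultures reached saturation at 30 °C; 1 = growth at the plate median or of vehicle wells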
# Measurement context: S. cerevisiae deletion strains, growth OD, locus YNL307C, strain MCK1, stronger effect = lower value
In all, about 5,500 compounds went through this assay and about 2,000 (36%) were called active. Inconclusive results (about 18%) are left out. The list shows a part of the results.
Metric name: normalized growth
Please reply with the number alone, leaving off any unit.

Dear colleague, please send me the reported normalized growth for O=C(N[C@@H](CO)[C@H](O)c1ccc([N+](=O)[O-])cc1)C(Cl)Cl when you can.
1.01

Given the compound O=C(O)c1cc(O)c2c(c1)C(=O)c1cc(O)cc(O)c1C2=O , write its reported normalized growth.
0.931

Report measured normalized growth; entry is COC(=O)C[C@H]1C(C)(C)[C@H](O)[C@@H]2CC3=C4CC(O)O[C@@H](c5ccoc5)[C@]4(C)CCC3[C@@]1(C)C2=O (stereo not given in full)
0.994

Check the records and state normalized growth for CNC(=O)N(C)c1nnc(C(C)(C)C)s1
1.02

Supply reported normalized growth belonging to this compound: CC(C)[C@@H]1CC[C@@H](C)CC1=O
1.01

----------
normalized growth values, listed per item
# Experiment: chemical genetic growth profiling, strain panel (AID 1159580);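 further: tested at 20 µM; growth read once vehicle control cultures reached saturation at 30 °C; 1 = growth at the plate median or of vehicle wells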
# Measurement context: S. cerevisiae deletion strains, growth OD, locus YGR229C, strain SMI1, stronger effect = lower value
Screen size: about 5,500 compounds; about 2,000 (36%) were called active. Another 18% or so got no clear call; they are omitted. This is one part of the list.
Response field accepts a number only; no unit should be typed.

Example entries and their recorded answers appear below.
NC(=NCCCCCCN=C(N)N=C(N)Nc1ccc(Cl)cc1)N=C(N)Nc1ccc(Cl)cc1 :: 0.0582
O=C1C=CC(=O)c2c(O)cccc21 :: 0.97
CC(C)=CCC/C(C)=C/CO :: 0.998
O=C(Cc1ccccc1)NC1CCN(S(=O)(=O)c2ccc(Cl)cc2)CC1 :: 0.992
c1ccc2nc(C3=NCCN3)ccc2c1 :: 0.955

For the molecule Cc1ccc(NC(=S)C(C#N)C(=O)N2CCCC2)c(C)c1 (configuration not stated) , report normalized growth.
1

Return value of normalized growth for input Cc1c(NC(C)C)c(=O)n(-c2ccccc2)n1C , no commentary.
0.998

Kindly indicate its recorded normalized growth. Item: CC(C)N=C(N)N=C(N)Nc1ccc(Cl)cc1
1.01

Read off the recorded normalized growth for O=c1[nH]ccc2c(O)cccc12
1.02

Please report normalized growth for the following molecule: O=C(O)c1cc(=O)c2ccccc2[nH]1
1

Output normalized growth of CC(C)C1CCC(C(=O)N[C@@H](Cc2ccccc2)C(=O)O)CC1 (some centres not stated)
0.949

# return recorded normalized growth for entry Cc1ccc(S(=O)(=O)N2CCN(CCOc3ccccc3)CC2)cc1
0.99

----------
# Experiment: chemical genetic growth profiling, strain panel (AID 1159580);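 further: tested at 20 µM; growth read once vehicle control cultures reached saturation at 30 °C; 1 = growth at the plate median or of vehicle wells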
# Measurement context: S. cerevisiae deletion strains, growth OD, locus YGL248W, strain PDE1
In all, about 5,500 compounds went through this assay and about 2,000 (36%) were called active. Roughly 18% stayed inconclusive and do not appear here. Cut-off read from the data, not from the text of the source: active = normalized growth mostly below about 0.91 (no sharp cut-off); inconclusive = no clear call, values can overlap the other calls; inactive = mostly above about 0.92. This is one part of the list.
# output must be one of class 1 for active, class 0 for inactive

CCCN(CCC)c1c([N+](=O)[O-])cc(C(F)(F)F)cc1[N+](=O)[O-] :: class 0
CCCCN(CC)c1c([N+](=O)[O-])cc(C(F)(F)F)cc1[N+](=O)[O-] :: class 0
CC(=O)OC1CCC23CC1(C)CCC2C(C)(C)CC3OC(C)=O (centres undefined) :: class 0
O=c1c(O)c(-c2ccccc2)oc2cc(O)ccc12 :: class 1
CC(NC(C)(C)C)C(=O)c1cccc(Cl)c1 (centres undefined) :: class 0

Now, please, on to the next molecule.
GET /call?item= O=c1c(O)cccc2cc(O)c(O)c(O)c12 returns the recorded outcome of this test.
class 1
